- EXPERIMENTAL_DETAILS: self-splicing fitness, log relative to wild type (ln ratio); higher = more splicing; Tetrahymena group I intron in knt gene, E. coli kanamycin selection, DiMSum; sequences stand for … in CUCUCU…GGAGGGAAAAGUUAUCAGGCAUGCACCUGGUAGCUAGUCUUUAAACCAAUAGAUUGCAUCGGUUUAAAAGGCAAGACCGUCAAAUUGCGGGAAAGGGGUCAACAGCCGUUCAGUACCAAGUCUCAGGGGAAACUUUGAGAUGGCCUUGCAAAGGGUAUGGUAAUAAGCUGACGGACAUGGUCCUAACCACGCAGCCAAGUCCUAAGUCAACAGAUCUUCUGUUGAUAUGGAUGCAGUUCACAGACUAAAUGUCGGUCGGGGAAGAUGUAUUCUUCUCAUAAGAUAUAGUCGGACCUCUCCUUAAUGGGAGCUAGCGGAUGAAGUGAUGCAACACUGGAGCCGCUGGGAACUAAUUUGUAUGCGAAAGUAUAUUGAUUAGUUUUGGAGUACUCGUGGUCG;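 further: selection with 25 µg/mL kanamycin versus none on LB agar overnight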
- EXPERIMENTAL_CONDITIONS: 37 °C
MEASURED_PARAMETER: self-splicing fitness (ln)
Enter the number alone.

The reported self-splicing fitness (ln) of the sequence AAUGAGCAAUAUUACGGCCG was -1.36

The recorded self-splicing fitness (ln) for entry CUUGAGCAAUAUUACGUAAG equals -0.582

====

- EXPERIMENTAL_DETAILS: self-splicing fitness, log relative to wild type (ln ratio); higher = more splicing; Tetrahymena group I intron in knt gene, E. coli kanamycin selection, DiMSum; sequences stand for … in CUCUCU…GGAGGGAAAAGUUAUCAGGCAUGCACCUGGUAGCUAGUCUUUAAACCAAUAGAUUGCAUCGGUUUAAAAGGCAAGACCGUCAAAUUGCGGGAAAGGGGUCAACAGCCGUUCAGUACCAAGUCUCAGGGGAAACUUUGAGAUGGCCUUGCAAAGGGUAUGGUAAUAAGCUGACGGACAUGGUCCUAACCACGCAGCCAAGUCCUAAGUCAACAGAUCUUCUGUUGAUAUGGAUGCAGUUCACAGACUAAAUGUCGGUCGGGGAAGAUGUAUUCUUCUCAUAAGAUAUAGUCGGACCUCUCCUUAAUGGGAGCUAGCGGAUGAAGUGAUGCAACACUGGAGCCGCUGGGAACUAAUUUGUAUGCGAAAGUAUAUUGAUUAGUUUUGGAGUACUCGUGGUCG
- EXPERIMENTAL_CONDITIONS: 30 °C
Form field: self-splicing fitness (ln) (one value per entry).
Answer with a number only.

Below: 8 sequences and their reported self-splicing fitness (ln).
[
  {
    "PRIMARY_SEQUENCE": "UGGGAGCAAUAUUACGUCAG",
    "self-splicing fitness (ln)": -2.87
  },
  {
    "PRIMARY_SEQUENCE": "UCUAAGCAAUAUUACGGCAA",
    "self-splicing fitness (ln)": -1.94
  },
  {
    "PRIMARY_SEQUENCE": "GCUUAGCAAUAUUACGGCUC",
    "self-splicing fitness (ln)": -0.359
  },
  {
    "PRIMARY_SEQUENCE": "CCGCAGCAAUAUUACGAUUG",
    "self-splicing fitness (ln)": -0.997
  },
  {
    "PRIMARY_SEQUENCE": "UUUAAGCAAUAUUACGCCCA",
    "self-splicing fitness (ln)": 0.412
  },
  {
    "PRIMARY_SEQUENCE": "UAUAAGCAAUAUUACGGGAU",
    "self-splicing fitness (ln)": -3.79
  },
  {
    "PRIMARY_SEQUENCE": "GGCUAGCAAUAUUACGCGUU",
    "self-splicing fitness (ln)": -0.656
  },
  {
    "PRIMARY_SEQUENCE": "UAGGAGCAAUAUUACGUAUU",
    "self-splicing fitness (ln)": -1.97
  }
]

// field: self-splicing fitness (ln); key: ACAUAGCAAUAUUACGGCCA ; value = -0.771

Form field self-splicing fitness (ln), entry CAGCAGCAAUAUUACGUCGC : -3.31

Reported self-splicing fitness (ln) of GUGCAGCAAUAUUACGGUCC : -0.146

UGUCAGCAAUAUUACGGCAA has a reported self-splicing fitness (ln) of -0.754

// self-splicing fitness (ln) lookup, sequence = CAAUAGCAAUAUUACGGACG , result: -0.294
